Test: in vitro
Conditions: rat, not told, Surrogate Activity based Plasma stability t½
Where a SMILES comes first, the peptide text is derived from it. Bridges are numbered along the chain shown (N, C = ends). [ ]: non-standard residue; d: D form. pGlu = O=C1CC[C@@H](C(=O)O)N1; Nle = CCCC[C@H](N)C(=O)O; Inp = O=C(O)C1CCNCC1
Overview of reported half-life across a group of molecules:

molecule	measured attribute	measured value
CCCC[C@@H]1NC(=O)[C@@H]2CCCN2C(=O)CNC(=O)[C@H](CCCCN)NC(=O)[C@H](Cc2c[nH]cn2)NC(=O)[C@@H](NC(=O)[C@H](CC(C)C)NC(=O)[C@H](CCCNC(=N)N)NC(=O)[C@@H]2CCCN2C(=O)[C@H](CCCNC(=N)N)NC(=O)[C@@H]2CCC(=O)N2)CSSC[C@@H](C(=O)N[C@H](Cc2ccccc2)C(=O)O)NC1=O [Example 13, pE-R-P-R-L-C-H-K-G-P-Nle-C-f-OH] ([pGlu]RPRLCHKGP[Nle]C[dF]-OH; disulfide 6-12)	half-life	4.73 h

API: the following record is the query input.
Find the recorded half-life belonging to CCCC[C@@H]1NC(=O)[C@@H]2CCCN2C(=O)CNC(=O)[C@H](CCCCN)NC(=O)[C@H](Cc2c[nH]cn2)NC(=O)[C@@H](NC(=O)[C@H](CC(C)C)NC(=O)[C@H](CCCNC(=N)N)NC(=O)[C@@H]2CCCN2C(=O)[C@H](CCCNC(=N)N)NC(=O)C2CCNCC2)CSSC[C@@H](C(=O)N[C@@H](Cc2ccccc2)C(=O)O)NC1=O [Example 18, H-Isn-R-P-R-L-C-H-K-G-P-Nle-C-F-OH] (H-[Inp]RPRLCHKGP[Nle]CF-OH; disulfide 6-12) and report it. 4.13 h

* * *

Assay: in vitro
Details: rat, not told, Surrogate Activity based Plasma stability t½
Where a SMILES comes first, the peptide text is derived from it. Bridges are numbered along the chain shown (N, C = ends). [ ]: non-standard residue; d: D form. Cha = N[C@@H](CC1CCCCC1)C(=O)O; pGlu = O=C1CC[C@@H](C(=O)O)N1; Nle = CCCC[C@H](N)C(=O)O
measured attribute: half-life (min)
The response must be a number in min with no trailing unit.

compound	measured attribute	measured value
N=C(N)NCCC[C@H](NC(=O)[C@@H]1CCCN1C(=O)[C@H](CCCNC(=N)N)NC(=O)[C@@H]1CCC(=O)N1)C(=O)N[C@@H](CC1CCCCC1)C(=O)N[C@H]1CSSC[C@@H](C(=O)N[C@@H](Cc2ccccc2)C(=O)O)NC(=O)[C@H](CC2CCCCC2)NC(=O)[C@@H]2CCCN2C(=O)CNC(=O)[C@H](CCCCN)NC(=O)[C@H](Cc2c[nH]cn2)NC1=O [Example 14, pE-R-P-R-Cha-C-H-K-G-P-Cha-C-F-OH] ([pGlu]RPR[Cha]CHKGP[Cha]CF-OH; disulfide 6-12)	half-life	85.2

Find the recorded half-life belonging to CCCC[C@@H]1NC(=O)[C@@H]2CCCN2C(=O)CNC(=O)[C@H](CCCCN)NC(=O)[C@H](Cc2c[nH]cn2)NC(=O)[C@@H](NC(=O)[C@H](CC(C)C)NC(=O)[C@H](CCCNC(=N)N)NC(=O)[C@@H]2CCCN2C(=O)[C@H](CCCNC(=N)N)NC(=O)[C@@H](N)CCCNC(=N)N)CSSC[C@@H](C(=O)N[C@@H](Cc2ccccc2)C(=O)O)NC1=O [Example 17, H-R-R-P-R-L-C-H-K-G-P-Nle-C-F-OH] (H-RRPRLCHKGP[Nle]CF-OH; disulfide 6-12) and report it. 14.1
